Below, each of the binders is paired with its reported pEC50 value.
measured-on: T1, human DLL4 expressed on cells (CHO-hDLL4; HEK293-hDLL4) (human, UniProt Q9NR61 27-685)
T1 construct: full length human DLL4 overexpressed on CHO cells (FMAT, FACS) or HEK293 cells (reporter assay)
protocol-description: FACS on CHO-hDLL4 cells
When answering, recall that pEC50 equals minus log10 of the concentration in mol/L, and write that number alone.

Answered examples (4):
[[record]]
binder = "DLLBII129D08 (VHH, not shown: small tags and cut ends) VHH: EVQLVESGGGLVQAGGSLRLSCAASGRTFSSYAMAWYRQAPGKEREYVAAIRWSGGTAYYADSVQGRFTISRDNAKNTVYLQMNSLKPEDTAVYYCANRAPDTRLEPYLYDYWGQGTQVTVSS"
meas_value = 8.02

[[record]]
binder = "DLLBII129E11 (VHH, not shown: small tags and cut ends) VHH: EVQLVESGGGLVQAGGSLRLSCAASGRTFSSYAMAWYRQAPGKEREYVAAIRWSGGTAYYADSVQGRFTISRDNAKNTVYLQMNSLKPEDTAVYYCANRAPDTRLRPYLYDYWGQGTQVTVSS"
meas_value = 8.85

[[record]]
binder = "DLLBII136C07 (VHH, not shown: small tags and cut ends) VHH: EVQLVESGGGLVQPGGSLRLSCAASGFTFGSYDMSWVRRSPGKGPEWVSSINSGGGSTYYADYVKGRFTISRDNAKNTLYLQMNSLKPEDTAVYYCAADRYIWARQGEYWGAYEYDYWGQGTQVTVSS"
meas_value = 7.96

[[record]]
binder = "DLLBII015 (VHH, not shown: small tags and cut ends) VHH: EVQLVESGGGLVQPGGSLRLSCAASGFTIGSYDMSWVRRSPGKGPEWVSAINSGGGSTYYADYVKGRFTISRDNAKNTLYLQMNSLKPEDTAVYYCAADRYIWARQGEYWGAYAYDYWGQGTQVTVSS"
meas_value = 7.83


What the record says about DLLBII101G08 (VHH, not shown: small tags and cut ends, parent VHH; also called 101G08 (wt); 101G8) VHH: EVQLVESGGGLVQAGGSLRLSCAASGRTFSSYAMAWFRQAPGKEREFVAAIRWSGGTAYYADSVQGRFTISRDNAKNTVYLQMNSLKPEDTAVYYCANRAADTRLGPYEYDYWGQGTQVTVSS : pEC50 is 7.76

The binder listed as DLLBII129B05 (VHH, not shown: small tags and cut ends) VHH: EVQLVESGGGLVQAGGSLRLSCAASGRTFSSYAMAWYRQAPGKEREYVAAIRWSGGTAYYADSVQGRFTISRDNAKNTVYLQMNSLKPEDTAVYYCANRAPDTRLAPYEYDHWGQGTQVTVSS shows pEC50 equal to 8.01

Form: binder = DLLBII115A05 (VHH, not shown: small tags and cut ends, parent VHH; also called 115A05 (wt); 115A5) VHH: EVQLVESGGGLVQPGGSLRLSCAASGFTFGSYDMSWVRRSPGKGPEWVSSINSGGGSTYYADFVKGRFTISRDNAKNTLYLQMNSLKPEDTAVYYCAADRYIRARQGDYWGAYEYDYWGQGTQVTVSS ; pEC50 = 7.95

Input DLLBII133G05 (VHH, not shown: small tags and cut ends) VHH: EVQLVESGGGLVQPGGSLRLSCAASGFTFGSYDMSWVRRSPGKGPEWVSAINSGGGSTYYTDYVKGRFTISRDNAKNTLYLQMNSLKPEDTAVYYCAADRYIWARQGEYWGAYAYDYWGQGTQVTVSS . Output pEC50: 8.07

The measured pEC50 associated with DLLBII133A09 (VHH, not shown: small tags and cut ends) VHH: EVQLVESGGGLVQPGGSLRLSCAASGFTFGSYDMSWVRRSPGKGPEWVSAINSGGGSTYYADYVKGRFTISRDNAKNTLYLQMNSLKPEDTAVYYCAADRYIWARQGEYWGAYAYDYWGQGTQVTVSS reads 8.14
